Listing: Selectivity ratio of selected compounds
TEST_DESCRIPTION: Inhibitory selectivity for Muscarinic receptors M3 and M1
Lab note: record the figure alone, no unit after it.

CON=C1CC2CCC(C1)N2C ... 0.1
C#CCCCON=C1CCN(C)CC1 ... 1.7
CCC#CCON=C1CC2CCC(C1)N2C ... 0.56
C[N+](C)(C)CC#CCOC(=O)Nc1cccc(Cl)c1 ... 0.46
C#CCCON=C1CC2CCC(C1)N2C ... 6.8

Indicate its recorded Selectivity ratio; the compound in question is CC#CCON=C1CC2CCC(C1)N2C
27

Indicate its recorded Selectivity ratio; the compound in question is C#CCCCON=C1CC2CCC(C1)N2C
16

Indicate its recorded Selectivity ratio; the compound in question is CC#CCCON=C1CC2CCC(C1)N2C
3

Indicate its recorded Selectivity ratio; the compound in question is CCC#CCON=C1CCN(C)CC1
5.4

Indicate its recorded Selectivity ratio; the compound in question is CN1CCC(=NO)CC1
7.6

Indicate its recorded Selectivity ratio; the compound in question is C#CCON=C1CCN(C)CC1
0.42

Indicate its recorded Selectivity ratio; the compound in question is C#CCCON=C1CCN(C)CC1
25

Indicate its recorded Selectivity ratio; the compound in question is C#CC(C)ON=C1CCN(C)CC1 (centres undefined)
14

---

STUDY_TARGET: Muscarinic receptor M2 and M3 (Rattus norvegicus) (UniProt P08483+P10980)
Sequence (P08483 whole entry, looked up, one chain of several): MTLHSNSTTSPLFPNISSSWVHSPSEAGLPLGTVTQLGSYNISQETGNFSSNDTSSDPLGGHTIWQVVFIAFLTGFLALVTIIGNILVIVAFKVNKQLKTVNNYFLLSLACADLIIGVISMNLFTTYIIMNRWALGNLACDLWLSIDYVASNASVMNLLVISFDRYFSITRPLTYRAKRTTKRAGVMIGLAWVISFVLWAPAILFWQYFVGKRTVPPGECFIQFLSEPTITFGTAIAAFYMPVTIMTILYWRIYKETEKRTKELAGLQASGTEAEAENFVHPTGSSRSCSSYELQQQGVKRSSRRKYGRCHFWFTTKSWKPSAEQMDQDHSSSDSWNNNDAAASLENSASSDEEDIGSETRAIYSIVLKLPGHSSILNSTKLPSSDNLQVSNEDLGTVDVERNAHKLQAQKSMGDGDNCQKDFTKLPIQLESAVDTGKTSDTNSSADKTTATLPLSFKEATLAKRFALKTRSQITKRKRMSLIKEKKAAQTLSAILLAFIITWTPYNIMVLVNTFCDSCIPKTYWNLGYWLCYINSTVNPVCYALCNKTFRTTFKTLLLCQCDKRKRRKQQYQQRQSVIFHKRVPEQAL
TEST_DESCRIPTION: Inhibitory selectivity for Muscarinic receptors M3 and M2
Assay type: protein assay
READOUT_NAME: Selectivity ratio
Lab note: record the figure alone, no unit after it.

CN1C2CCC1CC(=NO)C2 ... 18
CC#CCON=C1CC2CCC(C1)N2C ... 1.1
C#CC(C)ON=C1CCN(C)CC1 (centres undefined) ... 6.3

Indicate its recorded Selectivity ratio; the compound in question is CC#CCCON=C1CC2CCC(C1)N2C
0.66

Indicate its recorded Selectivity ratio; the compound in question is C#CC(C)ON=C1CC2CCC(C1)N2C (centres undefined)
0.72

Indicate its recorded Selectivity ratio; the compound in question is C[N+](C)(C)CC#CCOC(=O)Nc1cccc(Cl)c1
0.33

---

STUDY_TARGET: Muscarinic acetylcholine receptor M2 (Rattus norvegicus)
Sequence (P10980 whole entry): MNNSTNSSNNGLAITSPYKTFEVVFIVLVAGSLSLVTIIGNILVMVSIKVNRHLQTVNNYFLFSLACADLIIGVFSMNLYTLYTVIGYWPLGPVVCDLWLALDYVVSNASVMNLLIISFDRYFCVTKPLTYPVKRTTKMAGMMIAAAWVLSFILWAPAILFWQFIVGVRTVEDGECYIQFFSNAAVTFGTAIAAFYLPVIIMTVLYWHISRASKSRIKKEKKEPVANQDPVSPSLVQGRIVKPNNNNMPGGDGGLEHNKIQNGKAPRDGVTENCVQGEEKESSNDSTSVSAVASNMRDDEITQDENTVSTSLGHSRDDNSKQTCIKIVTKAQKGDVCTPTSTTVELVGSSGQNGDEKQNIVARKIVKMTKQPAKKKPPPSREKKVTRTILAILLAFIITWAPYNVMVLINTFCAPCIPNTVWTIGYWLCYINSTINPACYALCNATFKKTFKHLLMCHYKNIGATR
READOUT_NAME: Ki (µM)
Quick reminder: number only, in µM, skip the unit.

C#CC(CC)ON=C1CCN(C)CC1 (stereo not drawn) ... 10

Name the recorded Ki of C#CCC(C)ON=C1CCN(C)CC1 (stereo not drawn) , assay system Muscarinic acetylcholine receptor M2 (Rattus norvegicus).
10

Name the recorded Ki of C#CCCCON=C1CCN(C)CC1 , assay system Muscarinic acetylcholine receptor M2 (Rattus norvegicus).
10

---

TEST_DESCRIPTION: Inhibitory selectivity for Muscarinic receptors M3 and M1
Returns: string. Value is met if measured Selectivity ratio is below 5, and not met if it is greater than or equal to it.

Use the examples below as a reference point.
C#CCON=C1CC2CCC(C1)N2C ... met
C#CC(C)ON=C1CC2CCC(C1)N2C (stereo unspecified) ... met
C#CC(CC)ON=C1CCN(C)CC1 (stereo unspecified) ... met
CN1C2CCC1CC(=NO)C2 ... met
CC#CCON=C1CCN(C)CC1 ... not met
C#CC(CC)ON=C1CC2CCC(C1)N2C (stereo unspecified) ... not met

Take the compound CON=C1CCN(C)CC1 and say whether its Selectivity ratio is less than 5.
met

Take the compound C#CCC(C)ON=C1CC2CCC(C1)N2C (stereo unspecified) and say whether its Selectivity ratio is less than 5.
not met

Take the compound C#CCC(C)ON=C1CCN(C)CC1 (stereo unspecified) and say whether its Selectivity ratio is less than 5.
not met

Take the compound O=C1CCCN1CC#CCN1CCCC1 and say whether its Selectivity ratio is less than 5.
met

Take the compound CC#CCCON=C1CCN(C)CC1 and say whether its Selectivity ratio is less than 5.
met

---

Listing: Selectivity ratio of selected compounds
STUDY_TARGET: Muscarinic receptor M2 and M3 (Rattus norvegicus) (UniProt P08483+P10980)
TEST_DESCRIPTION: Inhibitory selectivity for Muscarinic receptors M3 and M2
Assay type: protein assay
Lab note: record the figure alone, no unit after it.

C#CCCON=C1CC2CCC(C1)N2C ... 0.34
C#CCON=C1CCN(C)CC1 ... 0.72
C#CCCON=C1CCN(C)CC1 ... 3.7
CC#CCON=C1CCN(C)CC1 ... 17
CCC#CCON=C1CC2CCC(C1)N2C ... 0.23
CON=C1CCN(C)CC1 ... 0.71
CC#CCCON=C1CCN(C)CC1 ... 0.27
CON=C1CC2CCC(C1)N2C ... 0.74

Indicate its recorded Selectivity ratio; the compound in question is CCC#CCON=C1CCN(C)CC1
1.4

Indicate its recorded Selectivity ratio; the compound in question is C#CC(CC)ON=C1CC2CCC(C1)N2C (stereo not drawn)
1.1

Indicate its recorded Selectivity ratio; the compound in question is C#CCCCON=C1CC2CCC(C1)N2C
1.3

Indicate its recorded Selectivity ratio; the compound in question is C#CC(CC)ON=C1CCN(C)CC1 (stereo not drawn)
0.85

---

STUDY_TARGET: Muscarinic receptor M2 and M3 (Rattus norvegicus) (UniProt P08483+P10980)
TEST_DESCRIPTION: Inhibitory selectivity for Muscarinic receptors M3 and M2
Type: protein assay
Returns: string. Value is Yes if measured Selectivity ratio is below 2, and No if it is greater than or equal to it.

C#CCCCON=C1CCN(C)CC1 ... Yes
C#CCC(C)ON=C1CCN(C)CC1 (stereo unspecified) ... No
C#CCC(C)ON=C1CC2CCC(C1)N2C (stereo unspecified) ... Yes
CN1CCC(=NO)CC1 ... No

Next molecule, please.
Take the molecule C#CCON=C1CC2CCC(C1)N2C and say whether its Selectivity ratio is less than 2.
Yes
